All values here come from paper PMC8906008.

Task for the reader: assign each of the following compounds its reported inhibition at 10 µM.
# tgt: SARS-CoV-2 nsp5 (nsp4-5-6 WT) (Severe acute respiratory syndrome coronavirus 2)
# assay-overview: cell-based
# assay-conditions: HEK-293T, read-out: Primary screen nsp5-WT RLU (%)
The reply should consist of the numeric value with the unit placed after it.

# example entries with known answers
compound=Cc1sc2c(c1C)C(c1ccc(Cl)cc1)=N[C@@H](CC(=O)Nc1ccc(O)cc1)c1nnc(C)n1-2 assay_readout="inhibition at 10 µM" recorded_measurement=31.8%
compound=CCOC(=O)C1=C(C)NC(C)=C(C(=O)OCC)C1c1ccccc1/C=C/C(=O)OC(C)(C)C assay_readout="inhibition at 10 µM" recorded_measurement=10.2%
compound=CNCc1ccc(C)c(NC(=O)c2ccc(Nc3nc(-c4ccccc4)c4ccccc4n3)cc2)c1 assay_readout="inhibition at 10 µM" recorded_measurement=16.4%
compound=Cc1nc(Nc2ncc(C(=O)Nc3c(C)cccc3Cl)s2)cc(N2CCN(CCO)CC2)n1 assay_readout="inhibition at 10 µM" recorded_measurement=11.6%

Quick batch: inhibition at 10 µM for everything below.
1. CC[C@@H]1C(=O)N(C)c2cnc(Nc3ccc(C(=O)N[C@H]4CC[C@H](N5CCN(CC6CC6)CC5)CC4)cc3OC)nc2N1C(C)C
2. COc1cc(NC(=O)Nc2cccc(CNC(=O)O[C@H]3CCOC3)c2)ccc1-c1cnco1

(A)
1. 83.9%
2. 46.1%
